Assign pIC50 to each entry below.
- SYSTEM UNDER TEST: GABAA receptors
- ASSAY: inhibition of [35S]-TBPS binding to rat whole brain membranes
- SETUP CONDITIONS: concentration required to inhibit 50% of [35S]-TBPS binding
Answers are plain numbers, as −log10 of the molar value.

Example results:
| MOLECULE | pIC50 |
| --- | --- |
| COCCN(CCOC)C(C(=O)Oc1c(OC)cccc1OC)C(C)C (racemic) | 4.00 |
| CCOc1cccc(OCC)c1OC(=O)C(CC)N(CCOC)CCOC (racemic) | 4.70 |
| CCC(C(=O)Oc1c(OC)cc(OC)cc1OC)N(CCOC)CCOC (racemic) | 4.85 |
| CCC(C(=O)Oc1c(OC)cccc1OC)N(C)Cc1ccccc1 (racemic) | 4.89 |

// for each molecule below, give its pIC50
1. CC[C@H](C(=O)Oc1c(OC)cc(C)cc1OC)N(CCOC)CCOC
2. COc1cccc(OC)c1OC(=O)C(C)N1CCOCC1 (stereo not shown) [Reference, reference compound]
3. COc1cc(C)cc(OC)c1OC(=O)C(C)N(C)Cc1ccccc1 (racemic)
4. COc1cc(C)cc(OC)c1OC(=O)[C@@H](C)N(C)Cc1ccccc1

4.66
3.12
4.66
4.57
